Values from patent US7348305B2

molecular target: β-adrenergic receptor / adenylate cyclase; settings: read-out: mean EC50, isoproterenol-AC activity; RS tissue 24 hours after LAD ligation; SEM, n=4
Property name: EC50 (µM)
Reply with just the number (in µM).

Could you tell me which EC50 is on file for CC(C)NCC(O)c1ccc(O)c(O)c1 (stereo not shown) [isoproterenol] ?
0.073

###

molecular target: β-adrenergic receptor / adenylate cyclase; conditions: read-out: mean EC50, isoproterenol-AC activity; EBZ tissue 24 hours after LAD ligation; SEM, n=4
Property name: EC50 (nM)
Only the number, expressed in nM, is required.

Form field: reported EC50 of CC(C)NCC(O)c1ccc(O)c(O)c1 (stereo not shown)
18

###

Target: β-adrenergic receptors in epicardium
Test: Action potential shortening with isoproterenol in epicardium
Parameters: species or system dog
Conditions: remote site normal tissue, 24 hours post LAD ligation
Description: This information is consistent with increased β-ARK-1 activity and decreased β-adrenergic receptor sensitivity in ventricular myocardium with chronic catecholamine administration or the converse, a decrease in β-ARK-1 with prolonged β-adrenergic receptor blockade (Pye et al., 2003).
Property name: pEC50
The read-out pEC50 is expressed as -log10 of concentration in moles per litre.

Give the measured pEC50 of CC(C)NCC(O)c1ccc(O)c(O)c1 (stereo not shown) .
7.84
